Provenance of the data: paper PMC11714206

molecular target: MyD88^TIR (Homo sapiens); construct: MyD88 (residues 148–296); 6xHis; made in house; host or cells: E. coli BL21 (DE3); experiment: T‐Surf phage library (P8 and P3) selection against MyD88^TIR, four rounds, NGS read counts; type: binding; conditions: P3 library, 4R selection against MyD88, rank before grouping
Metric Name: P3_MyD88 Rank (before)

A: RSSAFQQQLVMALKAQ
B: GEVPRYIFTGHLHATQ
Query: Returns the identifier with the smallest measured P3_MyD88 Rank (before) among A and B . Reply with the label of the item you choose.
Result: B

* * *

target: MyD88^TIR (Homo sapiens, UniProt Q99836); construct: MyD88 (residues 148–296); 6xHis; made in house; host or cells: E. coli BL21 (DE3); test: T‐Surf phage library (P8 and P3) selection against MyD88^TIR, four rounds, NGS read counts; format: binding; conditions: P3 library, selection against MyD88, rank by count before grouping
Sequence (Q99836 148-296): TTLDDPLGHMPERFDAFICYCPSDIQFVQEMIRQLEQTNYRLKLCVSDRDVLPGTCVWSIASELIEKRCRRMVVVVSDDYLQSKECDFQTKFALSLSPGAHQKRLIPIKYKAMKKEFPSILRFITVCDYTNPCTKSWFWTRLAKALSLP
Metric Name: P3_MyD88 Rank (before)

These recorded examples may help you get a feel for the data.
> print(dat)
   sequence.content             metric.name  reported.value
1  NQWRNELTPAANLSGW  P3_MyD88 Rank (before)            3527
2  SSFRECLWSLPELSKK  P3_MyD88 Rank (before)            3138
3  LAANEIRKEMKTLATI  P3_MyD88 Rank (before)            2326
4  LVAHEISKMMKVFATI  P3_MyD88 Rank (before)            2285

P: HLLKEFDKKLIPRLK
Q: YTALNNMGFHTFRGND
Query: Returns the identifier with the smallest measured P3_MyD88 Rank (before) among P and Q . Reply with the label of the item you choose.
Result: Q
